test: Inhibition of coliphage T2 thymidylate synthetase using dUMP as substrate preincubated for 20 mins followed by substrate addition; design: species or system Enterobacteria phage T2
recordedEndpoint: pIC50
pIC50 (log units): -log10 of the concentration in mol/L.

Bench note: what pIC50 did `O=c1[nH]c(=O)n([C@H]2C[C@H](O)[C@@H](CCP(=O)(O)O)O2)cc1F` show?
7.22
